Assay: antimalarial activity against Dd2 strain (AID 2302);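 further: 0% = DMSO untreated growth and 100% = chloroquine plus artemisinin killed control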
Conditions: P. falciparum Dd2 in RBCs, LDH growth readout, 72 h; at 2 µM; stronger effect = higher value
I'd be grateful if you could share measured growth inhibition for these entries.
Provide only the numeric value, understood in %.

The compound listed as "COc1cc(NC(=O)c2sc(-c3ccc(Cl)cc3)cc2NC(=O)CN2CCCC2)ccc1OCCN1CCCC1" has a reported growth inhibition of 79

Just so you know, measured growth inhibition for "Cc1[nH]c(C)c(-c2ccc(-c3cc(C(F)(F)F)cc(C(F)(F)F)c3)nc2)c(=O)c1Br" came out at 96

Reported growth inhibition for "Cc1cc(-c2nc3ccc(CN4CCN(C)CC4)cc3[nH]2)nn1Cc1cc(Cl)ccc1OCc1ccccc1" was 52

"O=C(NCCCCN1CCC(c2ccc3c(c2OCc2ccccn2)CCCC3)CC1)c1ccc(NC(=O)c2ccc(Cl)cc2)cc1" has a reported growth inhibition of 70
